For each of the molecules below, state its LLE (pIC50 – mLogD).
- assay target: UniProt:Q8I719
- Sequence (Q8I719 whole entry): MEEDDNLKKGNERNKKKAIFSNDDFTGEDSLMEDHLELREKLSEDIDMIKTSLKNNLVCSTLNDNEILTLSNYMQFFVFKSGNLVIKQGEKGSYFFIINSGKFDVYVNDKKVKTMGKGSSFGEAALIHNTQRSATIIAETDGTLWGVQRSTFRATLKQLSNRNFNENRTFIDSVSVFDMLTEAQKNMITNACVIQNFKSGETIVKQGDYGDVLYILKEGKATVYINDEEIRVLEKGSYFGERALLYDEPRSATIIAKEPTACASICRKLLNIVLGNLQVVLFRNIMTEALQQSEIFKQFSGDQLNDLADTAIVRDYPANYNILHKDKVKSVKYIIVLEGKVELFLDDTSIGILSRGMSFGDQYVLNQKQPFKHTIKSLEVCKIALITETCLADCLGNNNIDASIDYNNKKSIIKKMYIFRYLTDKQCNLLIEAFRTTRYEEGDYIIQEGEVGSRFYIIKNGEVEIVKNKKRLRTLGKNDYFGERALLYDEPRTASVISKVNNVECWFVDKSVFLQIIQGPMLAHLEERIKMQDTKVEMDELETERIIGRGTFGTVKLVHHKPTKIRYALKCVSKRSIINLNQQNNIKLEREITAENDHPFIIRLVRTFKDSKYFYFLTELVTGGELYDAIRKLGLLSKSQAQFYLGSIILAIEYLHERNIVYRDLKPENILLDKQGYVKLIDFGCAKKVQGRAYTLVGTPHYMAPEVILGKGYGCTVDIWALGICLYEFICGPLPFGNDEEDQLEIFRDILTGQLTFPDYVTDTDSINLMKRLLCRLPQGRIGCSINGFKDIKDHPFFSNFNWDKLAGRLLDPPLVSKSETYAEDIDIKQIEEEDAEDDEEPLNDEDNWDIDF
- test: biochemical
- condition: PfPKG pIC50 minus measured logD
Answers are plain numbers.

Study these solved cases before continuing.
| molecule | result |
| --- | --- |
| CN(C)CCOc1ccn2c(-c3ccnc(N)n3)c(-c3ccc(F)cc3)nc2c1 [Compound 25] | 5.9 |
| CN(C)Cc1ccn2c(-c3ccnc(Nc4ccc(N5CCN(C)CC5)cc4)n3)c(C3CC3)nc2c1 [Compound 12] | 6.0 |
| CN1CCC(Nc2ccn3c(-c4ccnc(N)n4)c(-c4ccc(F)cc4)nc3c2)C1 (centres unmarked) [Compound 20] | 6.0 |
| CN1CCC(Nc2ccn3c(-c4ccnc(N)n4)c(-c4ccc(F)cc4)nc3c2)CC1 [Compound 24] | 6.2 |
| CNc1nccc(-c2c(-c3ccc(F)cc3)nc3cc(NCCN(C)C)ccn23)n1 [Compound 27] | 6.4 |

// batch mode: one LLE (pIC50 – mLogD) value per listed entry
1. CN1CCN(c2ccc3nc(-c4ccc(F)cc4)c(-c4ccnc(N)n4)n3c2)CC1 [Compound 23]
2. CN(C)Cc1ccc2nc(-c3ccc(F)cc3)c(-c3ccnc(N)n3)n2c1 [Compound 16]
3. CN(C)Cc1cccn2c(-c3ccnc(N)n3)c(-c3ccc(F)cc3)nc12 [Compound 15]

Output:
1: 5.8; 2: 5.0; 3: 5.9
